test: Titration of Sensor Ia with various analytes (UV-vis and fluorescence)
Format: binding
condition_description: fluorescence intensity at saturation from theoretical fit; λex = 495 nm
// reported Isat/I0 (λex = 495 nm) per item
Please reply with the value in numeric form only.

[[record]]
molecule = "NC1C(O)OC(CO)C(O)C1O (centres unmarked)"
data_value = 27

[[record]]
molecule = "NCCc1ccc(O)cc1"
data_value = 52

[[record]]
molecule = "CNCC(O)c1ccc(O)c(O)c1 (centres unmarked) [epinephrine]"
data_value = 0.77

[[record]]
molecule = "NCCCCC(N)C(=O)O (centres unmarked)"
data_value = 25


# input for lookup
Requested field: Isat/I0 (λex = 495 nm). Item: NC(CCC(=O)O)C(=O)O (centres unmarked)
25

###

test: UV-vis and fluorescence titration of quinolone sensors with diaminopropane
Assay type: binding
condition_description: Table 3
Let's look at some compounds and their measured Isat/I0, Diaminopropane.
Could you keep your reply to the number by itself?

Sample records with Isat/I0, Diaminopropane:
[[record]]
compound = "CN(C)c1ccc2c(SCCCCCSc3c(C=O)c(=O)n(Cc4ccccc4)c4cc(N(C)C)ccc34)c(C=O)c(=O)n(Cc3ccccc3)c2c1 [Sensor IIIg]"
data_value = 6.6

[[record]]
compound = "CN(C)c1ccc2c(Sc3cccc(Sc4c(C=O)c(=O)n(Cc5ccccc5)c5cc(N(C)C)ccc45)c3)c(C=O)c(=O)n(Cc3ccccc3)c2c1 [Sensor IIId, meta-Benzenedithiol Dimer]"
data_value = 16

[[record]]
compound = "CN(C)c1ccc2c(Sc3ccccc3Sc3c(C=O)c(=O)n(Cc4ccccc4)c4cc(N(C)C)ccc34)c(C=O)c(=O)n(Cc3ccccc3)c2c1 [Sensor IIIe]"
data_value = 8.5


Then there is this compound:
Report Isat/I0, Diaminopropane for CN(C)c1ccc2c(SCCCSc3c(C=O)c(=O)n(Cc4ccccc4)c4cc(N(C)C)ccc34)c(C=O)c(=O)n(Cc3ccccc3)c2c1 [Sensor IIIf] please.
15

###

Listing of entries alongside the reported Isat/I0, Lysine.
test: Fluorescence titration of quinolone sensors with lysine
Type: binding
condition_description: Table 3
No unit in the answer, please; the number alone is enough.

// below: answered compounds
[[record]]
structure_notation = "CCSc1c(C=O)c(=O)n(Cc2ccccc2)c2cc(N(C)C)ccc12"
data_value = 41

[[record]]
structure_notation = "CN(C)c1ccc2c(SCCCCCSc3c(C=O)c(=O)n(Cc4ccccc4)c4cc(N(C)C)ccc34)c(C=O)c(=O)n(Cc3ccccc3)c2c1"
data_value = 27

[[record]]
structure_notation = "CN(C)c1ccc2c(SCCCSc3c(C=O)c(=O)n(Cc4ccccc4)c4cc(N(C)C)ccc34)c(C=O)c(=O)n(Cc3ccccc3)c2c1"
data_value = 24


Bench note: what Isat/I0, Lysine did CN(C)c1ccc2c(Sc3cccc(Sc4c(C=O)c(=O)n(Cc5ccccc5)c5cc(N(C)C)ccc45)c3)c(C=O)c(=O)n(Cc3ccccc3)c2c1 show?
4.7

// lookup Isat/I0, Lysine for CN(C)c1ccc2c(Sc3ccccc3Sc3c(C=O)c(=O)n(Cc4ccccc4)c4cc(N(C)C)ccc34)c(C=O)c(=O)n(Cc3ccccc3)c2c1
10
